// data source = ChEMBL document CHEMBL1821679

STUDY_TARGET: Heat shock protein HSP90 (Homo sapiens) (UniProt P07900+P08238)
METHOD_DESCRIPTION: Inhibition of Hsp90 in human MCF7 cells assessed as induction of Raf degradation at 5 fold IC50 after 24 hrs by Western blot method
Assay type: cell-based
Active and inactive are the calls of the source. The calls are words filed in the database; no cut-off is given here.
Could you please pick one outcome from this set? t for active, f for inactive

Just curious, what result did `COc1ccc(C(=O)Nc2cc3ccc(O[C@@H]4OC(C)(C)[C@H](OC)[C@@H](O)[C@H]4O)c(C)c3oc2=O)cc1-c1cc(C(=O)Nc2cc3ccc(O[C@@H]4OC(C)(C)[C@H](OC)[C@@H](O)[C@H]4O)c(C)c3oc2=O)ccc1OC` get here?
t

Also need `COc1cc2cc(NC(=O)CC/C=C/CCC(=O)Nc3cc4cc(OC)c(OC5CCN(C)CC5)c(C)c4oc3=O)c(=O)oc2c(C)c1OC1CCN(C)CC1` , thanks.
t

Another molecule: `Cc1c(OC2CCN(C)CC2)ccc2cc(NC(=O)CC/C=C/CCC(=O)Nc3cc4ccc(OC5CCN(C)CC5)c(C)c4oc3=O)c(=O)oc12`
t

Also need `Cc1c(OC2CCN(C)CC2)ccc2cc(NC(=O)C/C=C/CC(=O)Nc3cc4ccc(OC5CCN(C)CC5)c(C)c4oc3=O)c(=O)oc12` , thanks.
t

Then `COc1c(OC2CCN(C)CC2)ccc2cc(NC(=O)CC/C=C/CCC(=O)Nc3cc4ccc(OC5CCN(C)CC5)c(OC)c4oc3=O)c(=O)oc12` ?
f

One more molecule: `Cc1c(OCCCN(C)C)ccc2cc(NC(=O)C/C=C/CC(=O)Nc3cc4ccc(OCCCN(C)C)c(C)c4oc3=O)c(=O)oc12`
f

###

STUDY_TARGET: Heat shock protein HSP90 (Homo sapiens) (UniProt P07900+P08238)
METHOD_DESCRIPTION: Inhibition of Hsp90 in human MCF7 cells assessed as induction of Her2 degradation at 0.5 fold IC50 after 24 hrs by Western blot method
Assay type: cell-based
The source made the active and inactive calls. The calls are words filed in the database; no cut-off is given here.

SMILES_INPUT	inhibition
COc1cc2cc(NC(=O)CCC/C=C/CCCC(=O)Nc3cc4cc(OC)c(OC5CCN(C)CC5)c(C)c4oc3=O)c(=O)oc2c(C)c1OC1CCN(C)CC1	Active
COc1ccc(C(=O)Nc2cc3ccc(O[C@@H]4OC(C)(C)[C@H](OC)[C@@H](O)[C@H]4O)c(OC)c3oc2=O)cc1-c1cc(C(=O)Nc2cc3ccc(O[C@@H]4OC(C)(C)[C@H](OC)[C@@H](O)[C@H]4O)c(OC)c3oc2=O)ccc1OC	Active
